Each entry below carries its recorded IC50.
- Tested system: ALK (baculovirus expressed human ALK kinase domain F1098-K1410) (Homo sapiens, UniProt Q9UM73)
- Sequence (Q9UM73 1098-1410): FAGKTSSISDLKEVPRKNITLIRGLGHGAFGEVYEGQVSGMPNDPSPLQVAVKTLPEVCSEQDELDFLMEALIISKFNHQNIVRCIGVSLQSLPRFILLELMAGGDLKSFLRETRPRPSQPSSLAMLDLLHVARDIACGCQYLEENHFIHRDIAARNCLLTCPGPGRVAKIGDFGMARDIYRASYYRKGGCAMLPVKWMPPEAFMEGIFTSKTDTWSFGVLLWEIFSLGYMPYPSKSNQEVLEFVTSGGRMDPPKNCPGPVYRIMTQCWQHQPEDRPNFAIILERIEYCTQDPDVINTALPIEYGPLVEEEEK

{"Compound": "CC(=O)Nc1ncc(-c2nc3[nH]nc(C)c3c3c(F)c(O)cc(F)c23)s1 [Example 203]", "Measurement name": "IC50", "Value reported": "1000 to 2000 nM"}
{"Compound": "COCCOc1c(OC)ccc2c(-c3ccc(O)c(Cl)c3)nc3[nH]nc(C)c3c12 [Example 112]", "Measurement name": "IC50", "Value reported": "≤ 99 nM"}
{"Compound": "COc1cc2c(-c3ccc(O)cc3)nc3[nH]ncc3c2cc1OC [Example 29]", "Measurement name": "IC50", "Value reported": "100 to 999 nM"}
{"Compound": "COc1ccc(-c2nc3[nH]nc(C)c3c3cc(OCC4CCN(C)CC4)c(OC)c(F)c23)cc1Cl [Example 173]", "Measurement name": "IC50", "Value reported": "1000 to 2000 nM"}
{"Compound": "COc1cc2c(-c3ccc(O)c(Cl)c3)nc3[nH]ncc3c2cc1OC [Example 136]", "Measurement name": "IC50", "Value reported": "100 to 999 nM"}
{"Compound": "Cc1n[nH]c2nc(-c3ccc(O)c(Cl)c3)c3c(F)cc(O)c(F)c3c12 [Example 155]", "Measurement name": "IC50", "Value reported": "≤ 99 nM"}

We now examine a further compound.
// IC50 lookup, compound = COc1c(OCCN2CCN(CC(=O)NC(C)C)CC2)cc(F)c2c(-c3ccc(O)c(Cl)c3)nc3[nH]nc(C)c3c12 [Example 235] , result: ≤ 99 nM

====

Each entry below carries its recorded pIC50.
- Tested system: ALK (baculovirus expressed human ALK kinase domain F1098-K1410) (Homo sapiens, UniProt Q9UM73)
pIC50: −log10 of the molar value.

A selection of reference data follows.
{"Compound": "COc1c(OCCN2CCCCC2)cc2c(c(-c3ccc(O)c(Cl)c3)nc3[nH]nc(C)c32)c1F", "pIC50": "≥ 7.00"}
{"Compound": "COc1cc2c(-c3ccc(O)c(Cl)c3)nc3[nH]nc(C)c3c2cc1OCC1CCCCO1 (centres unmarked)", "pIC50": "≥ 7.00"}
{"Compound": "COc1ccc2c(-c3ccc(O)c(Br)c3)nc3[nH]nc(C)c3c2c1OCC1CCN(C)CC1", "pIC50": "≥ 7.00"}
{"Compound": "COc1c(OCCN2CCN(C3CCCCC3)CC2)cc(F)c2c(-c3ccc(O)c(Cl)c3)nc3[nH]nc(C)c3c12", "pIC50": "≥ 7.00"}
{"Compound": "COc1cc2c(-c3ccc(O)cc3)cc3[nH]nc(C)c3c2c(F)c1OC", "pIC50": "6.00 to 7.00"}

// pIC50 lookup, compound = Cc1n[nH]c2nc(-c3ccc4cc[nH]c4c3)c3c(F)cc(O)c(F)c3c12 , result: < 5.70

// pIC50 lookup, compound = COc1ccc(-c2nc3[nH]nc(C)c3c3cc(F)c(OC)c(O)c23)cc1Cl , result: < 5.70

// pIC50 lookup, compound = Cc1n[nH]c2nc(-c3cn(C)c(=N)s3)c3c(F)cc(O)c(F)c3c12 , result: 5.70 to 6.00
